Data provenance: patent US20200317816A1

Target: anti-FXI/FXIa antibody NOV1401
Sequence (VL, as listed by the source): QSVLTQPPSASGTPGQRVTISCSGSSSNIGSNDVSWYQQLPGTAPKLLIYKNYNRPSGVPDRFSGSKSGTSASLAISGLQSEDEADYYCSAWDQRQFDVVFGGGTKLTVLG
Test: cell-based or functional assay
measured_parameter: percentage reversal of NOV1401 aPTT prolongation, NOV1401/anti NOV1401 ratio 1/10 (n/n) (%)
Only the number, expressed in %, is required.

# input Check the records and state percentage reversal of NOV1401 aPTT prolongation, NOV1401/anti NOV1401 ratio 1/10 (n/n) for IDT1 anti-NOV1401 Fab (Fab, V domains shown, The heavy chain entry is VH-CH1 (Fd); also called antidote) VH: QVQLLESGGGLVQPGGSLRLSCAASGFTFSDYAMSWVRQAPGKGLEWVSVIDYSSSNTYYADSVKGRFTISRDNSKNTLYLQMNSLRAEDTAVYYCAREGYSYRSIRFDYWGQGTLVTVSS VL: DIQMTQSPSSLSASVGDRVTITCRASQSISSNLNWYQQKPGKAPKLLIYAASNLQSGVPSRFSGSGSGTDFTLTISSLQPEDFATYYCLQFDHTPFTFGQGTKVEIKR
# output 64
